Kd values for the binders below.
# assay.system: T1, EsCas13d, nuclease-dead (Eubacterium siraeum, UniProt B0MS50, R295A;H300A;R849A;H854A)
# T1 sequence: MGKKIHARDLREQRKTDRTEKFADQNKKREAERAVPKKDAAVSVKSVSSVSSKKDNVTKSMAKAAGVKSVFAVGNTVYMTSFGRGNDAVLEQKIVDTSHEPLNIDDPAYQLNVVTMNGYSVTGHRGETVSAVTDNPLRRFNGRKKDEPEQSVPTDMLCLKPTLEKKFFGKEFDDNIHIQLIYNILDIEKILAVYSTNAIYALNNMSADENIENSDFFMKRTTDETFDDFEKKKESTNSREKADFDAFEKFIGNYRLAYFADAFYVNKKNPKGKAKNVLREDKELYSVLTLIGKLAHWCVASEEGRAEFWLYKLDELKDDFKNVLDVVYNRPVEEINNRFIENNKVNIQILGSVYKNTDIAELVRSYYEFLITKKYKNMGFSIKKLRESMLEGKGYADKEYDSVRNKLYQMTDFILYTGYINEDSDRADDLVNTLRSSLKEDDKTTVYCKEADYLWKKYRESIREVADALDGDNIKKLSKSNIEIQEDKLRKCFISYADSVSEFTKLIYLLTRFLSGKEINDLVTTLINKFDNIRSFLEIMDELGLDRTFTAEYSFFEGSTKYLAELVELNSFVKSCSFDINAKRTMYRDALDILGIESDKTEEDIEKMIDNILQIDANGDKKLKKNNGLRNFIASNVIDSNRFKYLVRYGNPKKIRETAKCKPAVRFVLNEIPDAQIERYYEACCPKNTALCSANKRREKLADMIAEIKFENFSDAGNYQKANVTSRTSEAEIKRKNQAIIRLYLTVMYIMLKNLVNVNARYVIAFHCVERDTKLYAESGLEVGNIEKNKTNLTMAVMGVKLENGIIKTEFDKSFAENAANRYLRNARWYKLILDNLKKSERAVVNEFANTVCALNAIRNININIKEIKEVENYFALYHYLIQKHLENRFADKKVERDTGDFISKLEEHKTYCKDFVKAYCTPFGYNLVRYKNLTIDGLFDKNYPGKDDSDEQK
# test.method.notes: crRNA (strand 1, pre-loaded); Mg2+; 40 mM Tris-HCl pH 7.5, 150 mM NaCl, 6 mM MgCl2, 1 mM DTT, 0.1% Tween-20, 0.2 mg/ml BSA; 25 C; 10 min per concentration, then washed
# cond: tags: His6-TwinStrep-SUMO cleaved; N-terminal SNAP kept (SNAP-Surface 488); label: 3' end held by stalled T7 RNA polymerase
reported.endpoint: Kd (nM)

[[record]]
binder = "target 1 A1U,C6A (mixed) RNA 1: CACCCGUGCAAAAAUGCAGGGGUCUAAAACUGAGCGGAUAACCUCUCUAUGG RNA 2: GGGAAUGGAUCCACAUCUACGAAUUCGUACCAUAGAGAGGUUAUCAGCUCUCCGAGAUCGGAAGAGCACACGU"
units_symbol = "nM"
readout_number = 7.5

[[record]]
binder = "target 2 MT 5'PFS ACU 3'PFS UUU (mixed) RNA 1: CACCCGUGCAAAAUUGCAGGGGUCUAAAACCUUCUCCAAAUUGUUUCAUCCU RNA 2: GGGAAUGGAUCCACAUCUACGAAUUCACUAGGAUGAAACAAUUUGGAGAAGUUUAGAUCGGAAGAGCACACGU"
units_symbol = "nM"
readout_number = 6.4

[[record]]
binder = "target 1 MT 5'PFS GUU 3'PFS CCG (mixed) RNA 1: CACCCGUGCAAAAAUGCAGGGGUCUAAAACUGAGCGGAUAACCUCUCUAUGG RNA 2: GGGAAUGGAUCCACAUCUACGAAUUCGUUCCAUAGAGAGGUUAUCCGCUCACCGAGAUCGGAAGAGCACACGU"
units_symbol = "nM"
readout_number = 11.2

[[record]]
binder = "target 1 MT 5'PFS GUA 3'PFS CAC (mixed) RNA 1: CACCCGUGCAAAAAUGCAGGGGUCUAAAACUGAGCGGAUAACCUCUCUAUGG RNA 2: GGGAAUGGAUCCACAUCUACGAAUUCGUACCAUAGAGAGGUUAUCCGCUCACACAGAUCGGAAGAGCACACGU"
units_symbol = "nM"
readout_number = 16.9


From: paper PMC10786891
